Kindly state pIC50 for each of the entries shown.
- TARGET OF ASSAY: PI3K-δ (p110δ/p85α) (Homo sapiens (Human), UniProt O00329)
- Sequence (O00329 whole entry, species assumed): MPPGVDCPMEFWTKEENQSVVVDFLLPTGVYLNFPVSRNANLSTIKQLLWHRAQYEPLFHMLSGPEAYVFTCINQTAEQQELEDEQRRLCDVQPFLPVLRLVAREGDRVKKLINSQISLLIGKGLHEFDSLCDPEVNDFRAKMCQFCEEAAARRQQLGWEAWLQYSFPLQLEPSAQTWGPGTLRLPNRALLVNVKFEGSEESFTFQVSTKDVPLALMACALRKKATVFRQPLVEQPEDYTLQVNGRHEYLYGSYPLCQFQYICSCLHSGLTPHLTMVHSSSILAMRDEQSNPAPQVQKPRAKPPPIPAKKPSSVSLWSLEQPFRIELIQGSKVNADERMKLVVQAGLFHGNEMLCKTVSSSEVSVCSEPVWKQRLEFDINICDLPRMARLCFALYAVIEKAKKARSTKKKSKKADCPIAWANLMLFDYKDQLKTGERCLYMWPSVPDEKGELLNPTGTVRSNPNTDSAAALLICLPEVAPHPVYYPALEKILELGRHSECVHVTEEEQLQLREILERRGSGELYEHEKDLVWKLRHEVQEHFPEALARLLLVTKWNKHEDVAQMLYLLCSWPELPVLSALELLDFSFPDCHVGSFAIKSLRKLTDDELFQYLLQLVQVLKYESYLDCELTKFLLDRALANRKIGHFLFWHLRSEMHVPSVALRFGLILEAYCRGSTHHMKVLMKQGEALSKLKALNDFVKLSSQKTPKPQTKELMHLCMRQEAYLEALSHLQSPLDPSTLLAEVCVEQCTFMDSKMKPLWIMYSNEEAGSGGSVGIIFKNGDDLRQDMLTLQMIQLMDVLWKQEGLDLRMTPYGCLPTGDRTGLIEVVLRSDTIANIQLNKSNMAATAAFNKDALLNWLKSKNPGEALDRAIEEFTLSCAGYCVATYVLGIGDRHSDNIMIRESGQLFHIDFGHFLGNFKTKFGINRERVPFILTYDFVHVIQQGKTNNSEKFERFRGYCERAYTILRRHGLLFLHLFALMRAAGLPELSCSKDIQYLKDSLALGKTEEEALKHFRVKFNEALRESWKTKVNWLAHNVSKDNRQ
- Sequence (P27986 whole entry partner, species assumed): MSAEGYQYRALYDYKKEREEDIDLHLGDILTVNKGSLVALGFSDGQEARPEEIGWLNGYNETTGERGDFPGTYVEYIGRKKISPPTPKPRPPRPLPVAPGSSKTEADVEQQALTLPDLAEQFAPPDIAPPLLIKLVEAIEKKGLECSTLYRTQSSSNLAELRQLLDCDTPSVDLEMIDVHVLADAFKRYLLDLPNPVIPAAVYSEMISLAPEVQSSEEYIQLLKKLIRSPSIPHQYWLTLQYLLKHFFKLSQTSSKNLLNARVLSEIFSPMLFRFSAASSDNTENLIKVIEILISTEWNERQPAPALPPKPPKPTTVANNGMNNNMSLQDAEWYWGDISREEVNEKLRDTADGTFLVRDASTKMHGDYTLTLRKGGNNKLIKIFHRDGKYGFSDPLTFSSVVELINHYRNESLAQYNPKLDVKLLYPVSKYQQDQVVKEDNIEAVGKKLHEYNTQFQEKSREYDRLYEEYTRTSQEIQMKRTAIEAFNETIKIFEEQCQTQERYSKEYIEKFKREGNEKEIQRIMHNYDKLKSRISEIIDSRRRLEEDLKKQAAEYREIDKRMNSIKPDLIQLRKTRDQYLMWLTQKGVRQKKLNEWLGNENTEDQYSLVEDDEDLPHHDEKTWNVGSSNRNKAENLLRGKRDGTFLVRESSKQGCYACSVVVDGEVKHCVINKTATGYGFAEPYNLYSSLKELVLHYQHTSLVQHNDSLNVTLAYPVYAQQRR
- PROTOCOL DETAILS: Transcreener KINASE Assay, fluorescent determination of PI3K enzyme activity;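 also: ADP formed by the kinase detected via far-red competitive fluorescence polarization immunoassay after 80 min room-temperature reaction, inhibition relative to 2% DMSO wells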
- Assay type: biochemical
Give bare numbers, as −log10 of the molar value.

> print(dat)
                                   compound  reported.measurement
1  Cc1cnc2cc([C@H](C)Nc3ncnc4[nH]cnc34)c(-c3ccccc3)nn12 [Compound 23]                  8.22

For each listed entry, give its pIC50.
1. C[C@H](Nc1ncnc(N)c1-c1ccc(O)c(F)c1)c1cc2ncc(Cl)n2nc1-c1ccccc1 [Compound 38]
2. C[C@H](Nc1ncnc(N)c1C#N)c1cc2ncc(Cl)n2nc1-c1cccc(Cl)c1 [Compound 41]

[7.18, 8.52]

----------
Measured log10 IC50 (PI3K-β (Homo sapiens))
Hey, these are logged values: log10 of IC50, nM being the unit before logging.

Recorded results for 6 molecules are shown here.
> print(dat)
                                   molecule  value.type  reported.measurement
1  C[C@H](Nc1ncnc(N)c1Cl)c1cc2ncc(Cl)n2nc1-c1ccccc1  log10 IC50                  2.44
2  C[C@H](Nc1ncnc(N)c1C#N)c1cc2ncc(Cl)n2nc1-c1cccc(F)c1F  log10 IC50                  3.12
3  C[C@H](Nc1ncnc(N)c1C#N)c1cc2ncc(Cl)n2nc1-c1cc(F)cc(F)c1  log10 IC50                  3.02
4  C[C@H](Nc1ncnc2[nH]cnc12)c1cc2ncc(Cl)n2nc1-c1ccccc1F  log10 IC50                  3.28
5  C[C@H](Nc1ncnc(N)c1C#N)c1cc2ncc(Cl)n2nc1-c1ccccc1S(C)(=O)=O  log10 IC50                  2.98
6  CCC(Nc1ncnc(N)c1C#N)c1cc2ncc(Cl)n2nc1-c1ccccn1 (stereo not shown)  log10 IC50                  2.24

Provide reported log10 IC50 for each item, in the same order as listed.
1. C[C@H](Nc1ncnc(N)c1C#N)c1cc2ncc(Cl)n2nc1-c1cccnc1
2. C[C@H](Nc1ncnc(N)c1C#N)c1cc2ncc(Cl)n2nc1-c1ccsc1
3. C[C@H](Nc1ncnc(N)c1C#N)c1cc2ncc(Cl)n2nc1-c1ccccc1C(F)(F)F
4. Cc1cc(F)cc(-c2nn3c(Cl)cnc3cc2[C@H](C)Nc2ncnc(N)c2C#N)c1
5. C[C@H](Nc1ncnc(N)c1C#N)c1cc2ncc(Cl)n2nc1-c1cccc(C(F)(F)F)c1
6. C[C@H](Nc1ncnc(N)c1C#N)c1cc2ncc(Cl)n2nc1-c1cccc(O)c1

1. 2.38
2. 1.53
3. 2.65
4. 3.55
5. 3.61
6. 0.95

----------
- TARGET OF ASSAY: PI3K-β (Homo sapiens, UniProt P42338)
- Sequence (P42338 whole entry, looked up): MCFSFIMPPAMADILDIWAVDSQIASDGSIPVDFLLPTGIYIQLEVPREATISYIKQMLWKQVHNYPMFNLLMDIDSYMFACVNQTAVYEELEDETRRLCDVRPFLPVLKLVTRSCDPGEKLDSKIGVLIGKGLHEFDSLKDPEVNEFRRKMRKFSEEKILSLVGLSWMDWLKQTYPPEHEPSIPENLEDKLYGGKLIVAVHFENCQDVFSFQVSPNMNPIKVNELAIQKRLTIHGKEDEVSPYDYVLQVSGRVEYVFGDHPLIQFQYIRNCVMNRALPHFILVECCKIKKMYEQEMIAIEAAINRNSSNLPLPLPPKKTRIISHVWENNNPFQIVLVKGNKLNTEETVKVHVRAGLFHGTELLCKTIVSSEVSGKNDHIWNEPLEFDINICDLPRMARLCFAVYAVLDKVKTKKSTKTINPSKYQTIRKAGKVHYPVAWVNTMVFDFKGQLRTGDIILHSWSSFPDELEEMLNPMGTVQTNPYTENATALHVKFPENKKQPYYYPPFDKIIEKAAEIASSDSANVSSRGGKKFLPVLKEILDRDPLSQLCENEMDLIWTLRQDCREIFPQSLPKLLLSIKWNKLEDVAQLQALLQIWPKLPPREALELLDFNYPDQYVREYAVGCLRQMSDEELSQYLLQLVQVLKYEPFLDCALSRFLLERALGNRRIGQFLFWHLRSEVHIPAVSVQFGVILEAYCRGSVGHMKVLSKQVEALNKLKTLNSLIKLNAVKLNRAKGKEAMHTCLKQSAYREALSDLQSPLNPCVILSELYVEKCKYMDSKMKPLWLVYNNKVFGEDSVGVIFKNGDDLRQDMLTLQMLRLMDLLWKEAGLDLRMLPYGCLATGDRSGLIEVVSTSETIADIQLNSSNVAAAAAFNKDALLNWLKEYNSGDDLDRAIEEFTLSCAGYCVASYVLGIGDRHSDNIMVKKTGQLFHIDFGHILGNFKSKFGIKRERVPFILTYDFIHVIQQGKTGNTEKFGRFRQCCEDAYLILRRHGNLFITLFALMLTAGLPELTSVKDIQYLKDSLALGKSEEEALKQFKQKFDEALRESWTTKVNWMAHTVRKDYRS
- PROTOCOL DETAILS: Transcreener KINASE Assay, fluorescent determination of PI3K enzyme activity;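 also: recombinant PI3K enzyme reaction, 80 min at room temperature, ADP formed detected by far-red competitive fluorescence polarization immunoassay, inhibition relative to ADP in 2% DMSO control wells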
- Assay type: biochemical
- SETUP CONDITIONS: at 1 μM; read-out: PI3K-β IH % (inhibition rate)
VALUE TYPE: inhibition at 1 µM
Give the figure together with its unit, number first.

> print(dat)
                                        smi  reported.measurement
1  C[C@H](Nc1ncnc(N)c1C#N)c1cc2ncc(Cl)n2nc1-c1ccncc1                 60.8%
2  C[C@@H](Nc1ncnc(N)c1C#N)c1cc2ncc(Cl)n2nc1-c1ccc2scnc2c1                 -7.1%
3  C[C@@H](Nc1ncnc(N)c1C#N)c1cc2ncc(Cl)n2nc1-c1ccccn1                 -2.7%

Would you be so kind as to report inhibition at 1 µM for each listed record?
1. C[C@H](Nc1ncnc(N)c1-c1cccc(F)c1)c1cc2ncc(Cl)n2nc1-c1ccccc1
2. CC[C@@H](Nc1ncnc(N)c1C#N)c1cc2ncc(Cl)n2nc1-c1cccc(F)c1
3. C[C@H](Nc1ncnc(N)c1-c1cnn(C)c1)c1cc2ncc(Cl)n2nc1-c1ccccc1

-0.4%
23.6%
6.3%

Provide inhibition at 1 µM for all items below, preserving their order.
1. C[C@H](Nc1ncnc(N)c1C#N)c1cc2ncc(Cl)n2nc1-c1ccc2c(c1)OCCO2
2. C[C@H](Nc1ncnc(N)c1C(=O)O)c1cc2ncc(Cl)n2nc1-c1ccccc1

1: 37.4%; 2: -6.3%
